molecular target: Botulinum neurotoxin type A (Clostridium botulinum); assay: BoNT/A light chain protease inhibitors, biochemical, multiplex microsphere flow cytometry, validation set (AID 588460); details: at 10 µM, stronger effect = higher value
Measurement Label: inhibition (%)
Report as a plain number; the unit % is understood.

Solved cases (3 shown):
[[record]]
chemical_string = "COc1ccc(OC)c(S(=O)(=O)N2CCCc3ccccc32)c1"
measured_on = "Botulinum neurotoxin type A (Clostridium botulinum)"
number = -0.4

[[record]]
chemical_string = "Oc1[nH]c2ccccc2c1C1=NCCCC1"
measured_on = "Botulinum neurotoxin type A (Clostridium botulinum)"
number = -0.1

[[record]]
chemical_string = "COc1ccc2[nH]c(=O)c(CNC3CCCCC3)cc2c1"
measured_on = "Botulinum neurotoxin type A (Clostridium botulinum)"
number = 0.9


Query block: State, in one line, measured inhibition of "CSc1cccc(NC(=O)/C=C/c2ccccc2)c1"
Result block: -2.3

Query block: Tell me inhibition reported for "COc1ccc(CCN2CNc3c(c(=O)n(C)c(=O)n3C)C2)cc1OC"
Result block: 8

Query block: Respond only with inhibition recorded for "C=C(CC)C(=O)c1ccc(OCC(=O)O)c(Cl)c1Cl"
Result block: -2.2

###

target: Lethal factor (Bacillus anthracis); test: Lethal factor protease inhibitors, Bacillus anthracis, multiplex microsphere cleavage assay, validation set (AID 588461); conditions: flow cytometry, at 10 µM, stronger effect = higher value
# inhibition listing for each entry below
Output spec: scalar in %, unitless text.

Worked examples, 2 compounds total:
[[record]]
compound = "COc1ccc2c(c1OC)C(=O)N1C2SC[C@H]1C(=O)NC1CC(C)(C)NC(C)(C)C1 (some centres not stated)"
measured_on = "Lethal factor (Bacillus anthracis)"
measurement_label = "inhibition"
number = -2.4

[[record]]
compound = "CC(/C=C1\\SC(=O)N(CCCC(=O)O)C1=O)=C\\c1ccccc1"
measured_on = "Lethal factor (Bacillus anthracis)"
measurement_label = "inhibition"
number = -5.6


Query block: Tell me inhibition of "COc1ccc2nc(C)cc(Nc3ccccc3O)c2c1" when tested on Lethal factor (Bacillus anthracis).
Result block: -1.4

Query block: # return inhibition for CC12CN3CC(C)(CN(C1)C3c1cccs1)C2=O (configuration not stated) , test system: Lethal factor (Bacillus anthracis)
Result block: -4.2

Query block: Report inhibition on Lethal factor (Bacillus anthracis) for this entry: OC(CCN1CCCC1)(c1ccccc1)C1CCCCC1 (configuration not stated)
Result block: -2.2

Query block: Provide the reported inhibition (system: Lethal factor (Bacillus anthracis)) for O=C(Nc1ccccc1)OCC1CCCN2CCCCC12 (configuration not stated)
Result block: 2.5

Query block: Fill in: inhibition on Lethal factor (Bacillus anthracis), entry "CCc1c(C)c2ccc(OCC(=O)OC(C)C)c(C)c2oc1=O"
Result block: -1.3

Query block: For Lethal factor (Bacillus anthracis), give inhibition of the listed compound: CN1C(=O)N(C)C(=O)C2(Cc3ccccc3N3CCOCC32)C1=O (configuration not stated)
Result block: 1.1

###

assay: inhibitors of CD8+ T cell-vesicle binding, pilot screen, LFA-1/ICAM-1 modulator project, MLPCN validation set, flow cytometry (AID 2523); details: 2C mouse CD8+ T cells, at 7 µM, stronger effect = lower value; measured here: CD8+/vesicle+ event percentage
Measurement Label: double positive events (%)
I only need the number, in %, no unit after it.

Query block: Tell me its double positive events given "CN[C@H](C)[C@H](O)c1ccccc1" as the entry.
Result block: 53.3
